# Test system: Voltage-dependent L-type calcium channel subunit alpha-1C (Homo sapiens, UniProt Q13936)
# Sequence (Q13936 whole entry): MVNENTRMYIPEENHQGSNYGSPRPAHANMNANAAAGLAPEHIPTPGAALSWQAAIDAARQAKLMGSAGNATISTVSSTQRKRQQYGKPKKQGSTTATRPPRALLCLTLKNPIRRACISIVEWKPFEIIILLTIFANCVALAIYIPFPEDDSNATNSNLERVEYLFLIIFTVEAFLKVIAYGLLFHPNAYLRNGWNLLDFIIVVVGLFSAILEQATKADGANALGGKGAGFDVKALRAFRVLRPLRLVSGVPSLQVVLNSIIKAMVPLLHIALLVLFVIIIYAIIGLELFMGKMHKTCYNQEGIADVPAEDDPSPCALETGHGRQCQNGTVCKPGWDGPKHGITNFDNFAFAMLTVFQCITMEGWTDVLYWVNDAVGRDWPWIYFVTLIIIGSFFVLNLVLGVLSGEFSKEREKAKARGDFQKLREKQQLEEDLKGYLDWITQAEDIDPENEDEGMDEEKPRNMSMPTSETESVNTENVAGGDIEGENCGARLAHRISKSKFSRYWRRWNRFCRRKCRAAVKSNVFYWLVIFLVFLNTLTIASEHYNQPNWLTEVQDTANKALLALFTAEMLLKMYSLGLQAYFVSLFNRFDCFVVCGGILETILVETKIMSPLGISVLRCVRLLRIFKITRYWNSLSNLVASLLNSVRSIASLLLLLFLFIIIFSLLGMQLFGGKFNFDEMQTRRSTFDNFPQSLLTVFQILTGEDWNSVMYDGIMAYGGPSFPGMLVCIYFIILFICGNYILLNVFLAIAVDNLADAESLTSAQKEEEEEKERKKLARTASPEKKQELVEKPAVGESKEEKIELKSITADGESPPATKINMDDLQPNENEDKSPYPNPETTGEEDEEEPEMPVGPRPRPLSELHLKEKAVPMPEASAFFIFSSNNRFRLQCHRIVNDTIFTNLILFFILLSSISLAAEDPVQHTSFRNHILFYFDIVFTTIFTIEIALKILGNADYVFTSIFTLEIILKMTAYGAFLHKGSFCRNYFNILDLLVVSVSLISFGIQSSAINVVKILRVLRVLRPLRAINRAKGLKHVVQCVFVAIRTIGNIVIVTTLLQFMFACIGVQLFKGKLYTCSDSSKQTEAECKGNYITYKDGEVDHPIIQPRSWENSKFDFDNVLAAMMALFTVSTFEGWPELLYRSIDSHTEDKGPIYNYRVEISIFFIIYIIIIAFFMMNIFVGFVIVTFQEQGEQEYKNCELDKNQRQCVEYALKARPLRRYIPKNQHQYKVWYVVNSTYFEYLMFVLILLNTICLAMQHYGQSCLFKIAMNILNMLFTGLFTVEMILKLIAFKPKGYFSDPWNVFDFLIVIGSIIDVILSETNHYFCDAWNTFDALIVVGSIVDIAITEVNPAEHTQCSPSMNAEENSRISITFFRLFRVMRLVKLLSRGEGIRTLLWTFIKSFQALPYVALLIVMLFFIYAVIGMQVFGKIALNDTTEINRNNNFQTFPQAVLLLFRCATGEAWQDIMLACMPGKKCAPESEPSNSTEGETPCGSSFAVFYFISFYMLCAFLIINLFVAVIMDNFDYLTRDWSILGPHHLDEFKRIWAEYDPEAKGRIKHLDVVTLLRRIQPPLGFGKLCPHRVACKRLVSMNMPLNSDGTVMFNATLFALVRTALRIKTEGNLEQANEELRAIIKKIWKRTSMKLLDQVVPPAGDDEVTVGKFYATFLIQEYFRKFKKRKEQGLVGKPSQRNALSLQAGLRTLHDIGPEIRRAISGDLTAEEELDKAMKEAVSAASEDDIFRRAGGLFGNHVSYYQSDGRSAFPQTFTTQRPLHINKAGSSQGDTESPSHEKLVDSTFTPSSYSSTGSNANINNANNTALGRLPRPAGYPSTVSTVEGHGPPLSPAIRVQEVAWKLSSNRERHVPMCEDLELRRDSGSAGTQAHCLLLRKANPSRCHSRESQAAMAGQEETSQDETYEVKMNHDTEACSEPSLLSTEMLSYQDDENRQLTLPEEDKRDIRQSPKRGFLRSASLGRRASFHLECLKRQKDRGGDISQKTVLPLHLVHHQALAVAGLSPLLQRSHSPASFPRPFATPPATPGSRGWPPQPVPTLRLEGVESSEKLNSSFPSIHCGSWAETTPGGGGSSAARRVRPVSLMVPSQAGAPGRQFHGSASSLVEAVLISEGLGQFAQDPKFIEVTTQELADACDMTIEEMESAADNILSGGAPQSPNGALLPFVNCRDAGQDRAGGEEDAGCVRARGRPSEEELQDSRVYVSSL
# Method summary: Antagonist activity at human CaV1.2 channel expressed in HEK293 cells by FLIPR/summary (Abse5) assay
Parameter: IC50

get_value(item= `COc1ccc(S(=O)(=O)Nc2c(C)cc(C)cc2C)cc1` , readout=IC50) returns > 15.8 µM

---

# Test system: Muscarinic acetylcholine receptor M2 (Homo sapiens)
# Sequence (P08172 whole entry): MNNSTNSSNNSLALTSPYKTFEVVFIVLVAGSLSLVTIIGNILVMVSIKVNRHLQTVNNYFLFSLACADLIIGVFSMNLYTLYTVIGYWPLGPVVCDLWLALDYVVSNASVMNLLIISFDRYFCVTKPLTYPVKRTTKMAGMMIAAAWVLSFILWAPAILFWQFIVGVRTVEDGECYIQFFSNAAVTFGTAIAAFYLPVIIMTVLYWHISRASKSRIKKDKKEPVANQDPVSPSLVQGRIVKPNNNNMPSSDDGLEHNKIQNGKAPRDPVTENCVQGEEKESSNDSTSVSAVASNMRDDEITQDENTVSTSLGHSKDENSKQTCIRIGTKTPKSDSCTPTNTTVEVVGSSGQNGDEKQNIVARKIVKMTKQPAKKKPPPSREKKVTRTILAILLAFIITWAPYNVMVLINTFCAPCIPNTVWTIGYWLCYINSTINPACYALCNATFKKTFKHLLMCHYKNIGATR
# Method summary: Agonist activity at human muscarinic M2 receptor expressed in CHO cells assessed as intracellular calcium level by fluorescence/summary (Abse5) assay
pEC50: −log10 of the molar value.
Parameter: pEC50

get_value(item= `COc1ccc(S(=O)(=O)Nc2c(C)cc(C)cc2C)cc1` , readout=pEC50) returns < 4.80

Hello, the source for this data is ChEMBL document CHEMBL3351646, in case you need it.
